- System: human liver cancer HepG2 cells
- assay: Cell proliferation assay (CCK-8)
- Type: cell-based
- test-settings: HepG2, 72 h
assay-endpoint: IC50

Please review the following examples before continuing.
compound	tgt	IC50
C[C@H]1CCC/C=C/[C@@H]2C[C@H](OC(=O)/C=C/c3ccncc3)C[C@H]2[C@H](O)/C=C/C(=O)O1 [Compound 14a]	human liver cancer HepG2 cells	< 100 nM
C[C@H]1CCC/C=C/[C@@H]2C[C@H](OC(=O)/C=C/c3cccnc3)C[C@H]2[C@H](OC(=O)/C=C/c2cccnc2)/C=C/C(=O)O1 [Compound 16c]	human liver cancer HepG2 cells	100 to 1000 nM
C[C@H]1CCC/C=C/[C@@H]2C[C@H](O)C[C@H]2[C@H](OC(=O)/C=C/c2ccccn2)/C=C/C(=O)O1 [Compound 15b]	human liver cancer HepG2 cells	< 100 nM
C[C@H]1CCC/C=C/[C@@H]2C[C@H](OC(=O)/C=C/c3ccc4c(c3)OCO4)C[C@H]2[C@H](O)/C=C/C(=O)O1	human liver cancer HepG2 cells	1000 to 10000 nM
Cc1ccccc1/C=C/C(=O)O[C@@H]1C[C@H]2[C@H](O)/C=C/C(=O)O[C@@H](C)CCC/C=C/[C@@H]2C1	human liver cancer HepG2 cells	1000 to 10000 nM

I am curious: what IC50 value has been reported for "C[C@H]1CCC/C=C/[C@@H]2C[C@H](OC(=O)/C=C/c3cccc(F)c3)C[C@H]2[C@H](O)/C=C/C(=O)O1" ?
100 to 1000 nM

Recorded values, source patent US20220064138A1.
